Target: Human fibrinogen receptor (αIIbβ3) (Homo sapiens, UniProt P05106+P08514)
Construct: Human fibrinogen receptor (αIIbβ3) was purified from outdated platelets; from tissue; host or cells: outdated human platelets
Assay: Purified IIb/IIIa receptor assay (solid phase receptor assay, competition with biotinylated vitronectin)
Type: binding
Conditions: read-out: IIb/IIIa IC50
Where a name gives a salt, the structure may show the parent alone.
Below, each of the compounds is paired with its reported IC50 value.
Only the number, expressed in nM, is required.

INSERT INTO measurements (compound, reading_unit, result) VALUES
  ('O=C(O)CC(NC(=O)CNC(=O)c1cccc(NC(=O)NNc2ccccc2)c1)c1cccnc1 (stereo not shown) [Example 281, trifluoroacetate salt]', 'nM', 11500),
  ('O=C(O)CC(NC(=O)CNC(=O)c1cccc(NC2=NCCCN2)c1)c1cc(Cl)cc(Cl)c1O (racemic) [Example 237, trifluoroacetate salt, monohydrate]', 'nM', 1950);

Recorded IC50 of C/N=C(/Nc1cccc(C(=O)NCC(=O)NC(CC(=O)O)c2ccc(F)cc2)c1)NC(C)C (racemic) [Example 298, trifluoroacetate salt] , please.
5560

Recorded IC50 of CS(=O)(=O)c1cccc(C(CC(=O)O)NC(=O)CNC(=O)c2cccc(NC(=N)N)c2)c1 (stereo not shown) , please.
417

Recorded IC50 of N=C(Nc1cccc(C(=O)NCC(=O)NC(CC(=O)O)c2cc(Cl)cc(Cl)c2)c1)N1CCCCC1 (stereo not shown) [Example 285, trifluoroacetate salt] , please.
3170

Recorded IC50 of `C#C[C@H](CC(=O)O)NC(=O)CNC(=O)c1cccc(NC(N)=O)c1` , please.
834

Recorded IC50 of O=C(O)CC(NC(=O)CNC(=O)c1cccc(Nc2ncc(-c3ccccc3)[nH]2)c1)c1cccnc1 (stereo not shown) [Example 287, trifluoroacetate salt] , please.
41.1

Recorded IC50 of N=C(N)Nc1cccc(C(=O)NC2(C(=O)NC(CC(=O)O)c3cccnc3)CC2)c1 (stereo not shown) , please.
72000

Recorded IC50 of N=C(N)Nc1cc(NC(=N)N)cc(C(=O)NCC(=O)NC(CC(=O)O)c2cc(Cl)cc(Cl)c2)c1 (stereo not shown) , please.
37.4

Recorded IC50 of C/N=C(/Nc1cccc(C(=O)NCC(=O)NC(CC(=O)O)c2cc(Cl)cc(Cl)c2)c1)NC(C)C (racemic) [Example 296, trifluoroacetate salt] , please.
9450

Recorded IC50 of N=C(N)Nc1cccc(C(=O)NCC(=O)NC(CC(=O)O)c2cc(Br)c(O)c(Br)c2)c1 (stereo not shown) [Example 276, trifluoroacetate salt] , please.
111

Recorded IC50 of N=C(N)Nc1cccc(C(=O)NCC(=O)NC(CC(=O)O)c2ccsc2)c1 (racemic) [Example 59, trifluoroacetate salt] , please.
172

Recorded IC50 of N=C(N)Nc1cccc(C(=O)NCC(=O)NC(CC(=O)O)CC(=O)O)c1 [Example 53, trifluoroacetate salt] , please.
930

###

Target: Human vitronectin receptor (αvβ3) (Homo sapiens, UniProt P05106+P06756)
Construct: Human vitronectin receptor (αvβ3) was purified from human placenta; from tissue; host or cells: human placenta
Assay: Vitronectin adhesion assay (solid phase receptor assay, competition with biotinylated vitronectin)
Format: binding
Conditions: read-out: AvB3 IC50
Structures can show the parent of a compound that is named as a salt.
# note: boundary value 30 nM maps to false; IC50 below it maps to true

Study these solved cases before continuing.
INSERT INTO measurements (molecule, discrete_label) VALUES
  ('O=C(O)CC(NC(=O)CNC(=O)c1cccc(NC(=O)NCc2ccccn2)c1)c1cccnc1 (centres unmarked)', 'true'),
  ('CCOC(=O)CC(NC(=O)CNC(=O)c1cccc(N/C(=N\C#N)NCc2cccnc2)c1)c1ccccc1 (centres unmarked) [Example 145, trifluoroacetate salt]', 'false'),
  ('N=C(N)Nc1cccc(C(=O)NCC(=O)NC(CC(=O)O)c2cccnc2)c1 (racemic)', 'true'),
  ('CCOC(=O)CC(NC(=O)CNC(=O)c1cccc(NC(N)=O)c1)c1cccnc1 (centres unmarked) [Example 109, trifluoroacetate salt]', 'false');

Is IC50 of CC1(C)CN=C(Nc2cccc(C(=O)NCC(=O)NC(CC(=O)O)c3cc(Cl)cc(Cl)c3)c2)NC1 (racemic) [Example 367, trifluoroacetate salt] strictly below 30 nM?
true

Is IC50 of O=C(O)CC(NC(=O)CNC(=O)c1cc(NC2=NCCCCC2)cc(NC2=NCCCCC2)c1)c1cccnc1 (racemic) strictly below 30 nM?
true

Is IC50 of O=C(O)CC(NC(=O)CNC(=O)c1cccc(NC2=NCCCN2)c1)c1cc(Br)cc(Br)c1 (racemic) [Example 211, trifluoroacetate salt] strictly below 30 nM?
true

Is IC50 of N=C(N)Nc1cc(C(=O)NCC(=O)NC(CC(=O)O)c2cc(C(F)(F)F)cc(C(F)(F)F)c2)cc(C(F)(F)F)c1 (racemic) [Example 39, trifluoroacetate salt] strictly below 30 nM?
true

Is IC50 of CC(NC(=O)c1cccc(NC(=N)N)c1)C(=O)NC(CC(=O)O)c1cccnc1 (centres unmarked) strictly below 30 nM?
false

Is IC50 of O=C(O)CC(NC(=O)CNC(=O)c1ccc(Cl)c(NC2=NCCCCC2)c1)c1cccnc1 (racemic) [Example 21, bis TFA Salt] strictly below 30 nM?
true

Is IC50 of N=C(N)Nc1cccc(C(=O)NCC(=O)N[C@H](CSc2ccccc2)CC(=O)O)c1 [Example 68, trifluoroacetate salt] strictly below 30 nM?
true

Is IC50 of Cc1ccc(C(=O)NCC(=O)NC(CC(=O)O)c2cccnc2)cc1N (centres unmarked) strictly below 30 nM?
false

Is IC50 of CC(C)C(CC(=O)O)NC(=O)CNC(=O)c1cccc(NC(=N)N)c1 (centres unmarked) [Example 263, trifluoroacetate salt] strictly below 30 nM?
true

Is IC50 of C#C[C@@H](CC(=O)O)NC(=O)CNC(=O)c1cccc(NC(=N)N)c1 [Example 43, hydrochloride salt] strictly below 30 nM?
true

###

Molecular target: Human vitronectin receptor (αvβ3) (Homo sapiens, UniProt P05106+P06756)
Construct: Human vitronectin receptor (αvβ3) was purified from human placenta; from tissue; host or cells: human placenta
Assay: Vitronectin adhesion assay (solid phase receptor assay, competition with biotinylated vitronectin)
Type: binding
Conditions: read-out: AvB3 IC50
Structures can show the parent of a compound that is named as a salt.
ENDPOINT_LABEL: pIC50
Entry type: numeric. Quantity: pIC50, the -log10 of concentration in molar units.

INSERT INTO assay_data (compound, result) VALUES
  ('COc1ccc(C(CC(=O)O)NC(=O)CNC(=O)c2cccc(NC(=N)N)c2)c(O)c1 (racemic)', 8.69),
  ('N#C/N=C(\N)Nc1cccc(C(=O)NCC(=O)NC(CC(=O)O)c2ccccc2)c1 (centres unmarked)', 7.43),
  ('N=C(N)Nc1cccc(C(=O)NCC(=O)NC(CC(=O)O)c2cc(Br)cc(Br)c2)c1 (racemic) [Example 210, trifluoroacetate salt]', 8.58),
  ('N#C/N=C(\NCc1ccccc1)Nc1cccc(C(=O)NCC(=O)NC(CC(=O)O)c2ccccc2)c1 (centres unmarked)', 7.26),
  ('N=C(N)Nc1cccc(C(=O)NCC(=O)NC(CC(=O)O)c2ccc3ccccc3c2)c1 (racemic) [Example 56, trifluoroacetate salt]', 8.51),
  ('N=C(N)Nc1cccc(C(=O)NCC(=O)NC(CC(=O)O)c2cc(Cl)c(O)c(Cl)c2)c1 (centres unmarked) [Example 277, trifluoroacetate salt]', 8.85),
  ('O=C(O)CC(NC(=O)CNC(=O)c1cccc(NC2=NCCCCC2)c1)c1cc(Cl)cc(Cl)c1O (racemic) [Example 232, trifluoroacetate salt, monohydrate]', 7.72),
  ('NC(=S)Nc1cccc(C(=O)NCC(=O)NC(CC(=O)O)c2cc(Cl)cc(Cl)c2)c1 (racemic)', 7.11),
  ('N=C(N)Nc1cccc(C(=O)NCC(=O)N[C@@H](CC(=O)O)CS(=O)(=O)c2ccccc2C(=O)O)c1 [Example 71, TFA salt]', 7.69),
  ('O=C(O)CC(NC(=O)CNC(=O)c1cccc(NC2=NCCN2)c1)c1cc(Cl)cc(Cl)c1O (racemic) [Example 238, trifluoroacetate salt, monohydrate]', 9.04);

Recorded pIC50 of Cc1ccc(C(CC(=O)O)NC(=O)CNC(=O)c2cccc(NC(=N)N)c2)s1 (centres unmarked) [Example 253, trifluoroacetate salt] , please.
9.08

Recorded pIC50 of N=C(N)Nc1cccc(C(=O)NCC(=O)NC(CC(=O)O)c2ccc3c(c2)OCO3)c1 (racemic) [Example 6, trifluoroacetate salt] , please.
8.98

Recorded pIC50 of CC1(C)CN=C(Nc2cccc(C(=O)NCC(=O)NC(CC(=O)O)c3cc(Cl)cc(Cl)c3O)c2)NC1 (racemic) [Example 362, trifluoroacetate salt] , please.
9.08

Recorded pIC50 of N=C(N)Nc1cccc(C(=O)NCC(=O)NC(CCS(=O)(=O)c2ccccc2C(=O)O)CC(=O)O)c1 (racemic) , please.
9.14

Recorded pIC50 of O=C(O)CC(NC(=O)CNC(=O)c1cccc(NC2=NCCCN2)c1)c1cc(Cl)cc(Br)c1 (racemic) [Example 215, trifluoroacetate salt] , please.
9.39

Recorded pIC50 of CCC(CC(=O)O)NC(=O)CNC(=O)c1cccc(NC(=N)N)c1 (centres unmarked) [Example 264, trifluoroacetate salt] , please.
8.66

Recorded pIC50 of O=C(O)CC(NC(=O)CNC(=O)c1cccc(NC2=NCCC2)c1)c1cc(Cl)cc(Cl)c1 (racemic) [Example 203, trifluoroacetate salt] , please.
8.45

Recorded pIC50 of Nc1nnc(Nc2cccc(C(=O)NCC(=O)NC(CC(=O)O)c3cc(Cl)cc(Cl)c3)c2)[nH]1 (centres unmarked) [Example 282, trifluoroacetate salt] , please.
6.06

Recorded pIC50 of NC(=O)Nc1cccc(C(=O)NCC(=O)NC(CC(=O)O)c2cccnc2)c1 (centres unmarked) [Example 46, hydrochloride salt] , please.
8.27

Recorded pIC50 of `CCOC(=O)CCNC(=O)CNC(=O)c1cccc(NC(=N)N)c1` , please.
5.74

Recorded pIC50 of O=C(O)CC(NC(=O)CNC(=O)c1cccc(NC(=O)NCc2cccc3ccccc23)c1)c1cccnc1 (centres unmarked) [Example 131, trifluoroacetate salt] , please.
8.42

Recorded pIC50 of O=C(O)CC(NC(=O)CNC(=O)c1cccc(Nc2ncc(-c3ccccc3)[nH]2)c1)c1cccnc1 (centres unmarked) [Example 287, trifluoroacetate salt] , please.
7.30

Recorded pIC50 of NC(=O)Nc1cccc(C(=O)NCC(=O)NC(CC(=O)O)c2cccnc2)c1 (centres unmarked) [Example 110, trifluoroacetate salt] , please.
8.35

Recorded pIC50 of N=C(N)Nc1cccc(C(=O)NCC(=O)NC(CC(=O)O)c2cc(Cl)cc(Br)c2)c1 (racemic) [Example 214, trifluoroacetate salt] , please.
8.63

Recorded pIC50 of Cc1ccc(SCCC(CC(=O)O)NC(=O)CNC(=O)c2cccc(NC(=N)N)c2)cc1 (racemic) [Example 66, trifluoroacetate salt] , please.
8.84

Recorded pIC50 of O=C(O)CC(NC(=O)CNC(=O)c1cccc(NC2=NCCCCC2)c1)c1cc(Cl)cc(Cl)c1 (racemic) [Example 189, trifluoroacetate salt] , please.
8.39

These entries and their values trace back to patent US6831199B1.
